Ref: patent US20170158636A1

Test system: MDA-MB-231 breast cancer cells
assay remarks: Anti-proliferative activity, cell-titre luminescent viability assay
Assay type: cell-based
assay context: Homo sapiens, 72 hours exposure
Rule: measured IC50 below 3 µM gets Met; anything equal to or greater than 3 µM gets Not met.

> print(dat)
                           smiles.structure                  assayed.system  discrete.label
1  CN1CCN(CCCn2c3ccccc3c3cc(C(=O)N4CCN(CCc5ccccc5)CC4)ccc32)CC1  MDA-MB-231 breast cancer cells             Met
2  CCN(CC)CCCn1c2ccccc2c2cc(C(=O)N3CCN(CCc4cccc(OC)c4)CC3)ccc21  MDA-MB-231 breast cancer cells             Met
3  COc1ccc(CCN2CCN(C(=O)c3ccc4c(c3)c3ccccc3n4CCCN3CCN(C)CC3)CC2)cc1  MDA-MB-231 breast cancer cells         Not met
4  CN(C)CCCn1c2ccccc2c2cc(C(=O)N3CCN(CCc4ccc(F)cc4)CC3)ccc21  MDA-MB-231 breast cancer cells         Not met
5  CN1CCN(CCCn2c3ccccc3c3cc(C(=O)N4CCN(CCc5cccc(F)c5)CC4)ccc32)CC1  MDA-MB-231 breast cancer cells             Met

Identify whether the compound "CN1CCN(CCCn2c3ccccc3c3cc(C(=O)N4CCN(CCc5ccc(F)cc5)CC4)ccc32)CC1" records IC50 below 3 µM.
Met

Say whether its IC50 is strictly beneath 3 µM. Entry: "CN1CCN(CCCn2c3ccccc3c3cc(C(=O)N4CCN(CCc5ccc6c(c5)OCO6)CC4)ccc32)CC1"
Not met

Please state whether IC50 is below 3 µM for "CN(C)CCCn1c2ccccc2c2cc(C(=O)N3CCN(CCc4ccc5c(c4)OCO5)CC3)ccc21"
Not met

Is 3 µM strictly greater than the compound's reported IC50? compound: "COc1cccc(CCN2CCN(C(=O)c3ccc4c(c3)c3ccccc3n4CCCN3CCN(C)CC3)CC2)c1"
Not met

Strictly below 3 µM: is that where IC50 of "COc1ccc(CCN2CCN(C(=O)c3ccc4c(c3)c3ccccc3n4CCCN(C)C)CC2)cc1" sits?
Not met

IC50 strictly < 3 µM for this compound? "O=C(c1ccc2c(c1)c1ccccc1n2CCCCl)N1CCN(CCc2ccc(F)cc2)CC1"
Not met

Please indicate whether the reported IC50 of "CCN(CC)CCCn1c2ccccc2c2cc(C(=O)N3CCN(CCc4ccc(F)cc4)CC3)ccc21" is strictly below 3 µM.
Met

Given "O=C(c1ccc2[nH]c3ccccc3c2c1)N1CCN(CCc2ccc(F)cc2)CC1" , is recorded IC50 strictly lower than 3 µM?
Not met

Confirm or reject: IC50 of "O=C(c1ccc2c(c1)c1ccccc1n2CCc1ccc(F)cc1)N1CCN(CCc2ccc(F)cc2)CC1" lies strictly below 3 µM
Not met
